Entries and their Log(M/C) values follow.
- assay.details: Measurement 1: migration M of drug ion to skin with membrane type iontophoresis device
- Format: in vitro ADME, rat
- run.parameters: from measured M and C
// no unit string in output, number only

Guide cases for Log(M/C), answers given:
O=C(O)c1ccccc1O	−0.96
CCc1cccc2c3c([nH]c12)C(CC)(CC(=O)O)OCC3 (stereo not shown)	−0.93
COc1ccc2c(c1)c(CC(=O)O)c(C)n2C(=O)c1ccc(Cl)cc1	−0.87

# evaluate next
`O=C(O)Cc1ccccc1Nc1c(Cl)cccc1Cl` has a reported Log(M/C) of 0.3

###

- assay.details: Measurement 2: migration C of drug ion under skin-absent condition (through anion exchange membrane into physiological salt solution)
- Type: physicochemical
- run.parameters: log of migration C, 6.25 mM, 0.94 mA, 60 minutes
measured.attribute: LogC
Form: value (number only, do not type unit).

CC(C(=O)O)c1cccc(C(=O)c2ccccc2)c1 (centres unmarked)	3.39
O=C(O)Cc1c[nH]c2ccccc12	3.89
COc1ccc2c(c1)c(CC(=O)O)c(C)n2C(=O)c1ccc(Cl)cc1	3.34

The compound listed as `O=C(O)CCCc1c[nH]c2ccccc12` shows LogC equal to 3.58

Lab book: LogC of `O=C(O)Cc1ccccc1Nc1c(Cl)cccc1Cl` noted as 2.86

###

- assay.details: Measurement 1: migration M of drug ion to skin with membrane type iontophoresis device
- Type: in vitro ADME, rat
- run.parameters: log of migration M; rat back skin; 6.25 mM; 0.94 mA, 60 minutes
measured.attribute: LogM
Answer using only a numeral; do not append any unit.

Below: 3 molecules and their reported LogM.
O=C(O)Cc1ccccc1Nc1c(Cl)cccc1Cl [Diclofenac]	3.16
COc1ccc2c(c1)c(CC(=O)O)c(C)n2C(=O)c1ccc(Cl)cc1 [Indomethacin]	2.47
CCc1cccc2c3c([nH]c12)C(CC)(CC(=O)O)OCC3 (stereo not shown) [Etodolac]	2.48

Please look at the following molecule next.
Briefly, LogM measured for O=C(O)c1ccccc1O [Salicylic acid] : 2.87

###

- assay.details: Measurement 2: migration C of drug ion under skin-absent condition (through anion exchange membrane into physiological salt solution)
- Format: physicochemical
- run.parameters: log of migration C, 6.25 mM, 0.94 mA, 60 minutes
Some molecules, each annotated with its measured LogC.
Would you mind answering with just the numeric figure?

Reference set, count: 2
O=C(O)Cc1ccc(-c2ccccc2)cc1 [Felbinac]	3.53
CCc1cccc2c3c([nH]c12)C(CC)(CC(=O)O)OCC3 (stereo not drawn) [Etodolac]	3.41

# next molecule below
Just so you know, measured LogC for O=C(O)c1ccccc1O [Salicylic acid] came out at 3.83

###

- assay.details: Measurement 2: migration C of drug ion under skin-absent condition (through anion exchange membrane into physiological salt solution)
- Type: physicochemical
- run.parameters: 6.25 mM drug solution, constant current 0.94 mA for 60 minutes, average of 3
measured.attribute: C (migration of drug ion under skin-absent condition)
Number first, unit second: that is the form wanted.

Some solved entries appear below for comparison.
CC(C(=O)O)c1cccc(C(=O)c2ccccc2)c1 (centres unmarked)	2432 nmol/mL
O=C(O)Cc1c[nH]c2ccccc12	7822 nmol/mL
COc1ccc2c(c1)c(CC(=O)O)c(C)n2C(=O)c1ccc(Cl)cc1	2189 nmol/mL
O=C(O)c1ccccc1O	6800 nmol/mL

Now, please, on to the next compound.
Noted for `O=C(O)Cc1ccc(-c2ccccc2)cc1` : its C (migration of drug ion under skin-absent condition) reads 3409 nmol/mL
